Every entry's value here was drawn from ChEMBL document CHEMBL4513216.

Items are presented alongside their recorded cytotoxicity at 10 µM.
Assay Procedure: Toxicity liver stage against HepG2, at 10uM
Type: cell-based
Parameters: test concentration 10 uM, cell line HepG2-A16-CD81EGFP
Settings: human, HepG2-A16-CD81EGFP cells; read-out: INHIBITION
Please give a number only; it is taken to be in %.

{"Molecule": "Cn1ccc2cc(CC3COCCN(C(=O)c4ccccn4)C3)ccc21 (stereo not drawn)", "Unit Of Measurement": "%", "Observed Result": 4.57}
{"Molecule": "COc1cccc(OC)c1C(C(=O)O)N(C)Cc1c(C)n[nH]c1C (stereo not drawn)", "Unit Of Measurement": "%", "Observed Result": 2.14}
{"Molecule": "O=C(c1cccnc1N1CCOCC1)N1CCCC(n2cccn2)C1 (stereo not drawn)", "Unit Of Measurement": "%", "Observed Result": 0.985}

Measured cytotoxicity at 10 µM, O=C(CN1CCCCC1C1OCCO1)Nc1ccc(F)c(F)c1 (stereo not drawn) : -3.53

Measured cytotoxicity at 10 µM, CN(C)S(=O)(=O)N1CCC[C@]2(C[C@@H](Oc3ccccn3)CO2)C1 : -2.31

Measured cytotoxicity at 10 µM, CCn1nc(C)c2nc(C(C)C)nc(NCC(C)O)c21 (stereo not drawn) : 8.02

Measured cytotoxicity at 10 µM, Cc1csc(CNC(=O)N(C)Cc2ccc3c(c2)OCCO3)n1 : 5.38

Measured cytotoxicity at 10 µM, CS(=O)(=O)NCCC1CCCN(Cc2ccccc2F)C1 (stereo not drawn) : -1.25

Measured cytotoxicity at 10 µM, Cc1ccc(CC(=O)NCC(O)c2cc(Cl)cc(Cl)c2)cn1 (stereo not drawn) : -3.69

###

Assay Procedure: Toxicity liver stage against HepG2, at 10uM
Format: cell-based
Set-up: test concentration 10 uM, cell line HepG2-A16-CD81EGFP
Settings: human, HepG2-A16-CD81EGFP cells; read-out: INHIBITION
Measured Quantity: cytotoxicity at 10 µM

Look over these answered cases.
{"Compound": "CCc1ccc(C2CCCCCN2Cc2nc(CCOC)no2)o1 (stereo unspecified)", "Observed Result": "1.15%"}
{"Compound": "COc1cccc(Cn2cccc(C#N)c2=O)c1", "Observed Result": "11.3%"}
{"Compound": "CN1CCC(Cc2cc(Nc3ccccn3)ncn2)CC1", "Observed Result": "-23.4%"}

Measured cytotoxicity at 10 µM, Cc1cccc(C(=O)N2C[C@@H]3OCCN(c4ncccn4)[C@@H]3C2)n1 : 0.523%

Measured cytotoxicity at 10 µM, CCc1cc(CNC(=O)C2CCC(=O)N(Cc3ccccc3F)C2)on1 (stereo unspecified) : 1.48%

Measured cytotoxicity at 10 µM, CN(C)C(=O)Cn1c(C2CC2)c(CN2CCC(O)CC2)c2cccnc21 : -4.9%

###

Items are presented alongside their recorded cytotoxicity at 10 µM.
Assay Procedure: Toxicity liver stage against HepG2, at 10uM
Assay type: cell-based
Set-up: test concentration 10 uM, cell line HepG2-A16-CD81EGFP
Settings: human, HepG2-A16-CD81EGFP cells; read-out: INHIBITION
Remember to quote the unit after the number.

Measured cytotoxicity at 10 µM, CC(C)CNC(=O)N1CC[C@@H]2CN(Cc3cccnc3)S(=O)(=O)[C@@H]2CC1 : -93.6%

Measured cytotoxicity at 10 µM, CCN(c1ccccc1C(=O)O)S(=O)(=O)c1cccc2cccnc12 : 1.28%
